- Method Summary: Lipophilicity, chromatographic lipophilicity index of the compound in methanol by UPLC-MS/MS
- Format: physicochemical
API: label(entry) gives TRUE if the entry's logKw is strictly smaller than -3; on equality or larger values it gives FALSE.

Answered cases to consult:
- Compound Structure: "CN1[C@@H]2CC[C@H]1C/C(=N/Nc1nc(-c3ccc(Cl)c(Cl)c3)cs1)C2"
  Assigned Class: "TRUE"
- Compound Structure: "CN1[C@@H]2CC[C@H]1C/C(=N/Nc1nc(-c3ccc(Cl)cc3)cs1)C2"
  Assigned Class: "FALSE"
- Compound Structure: "Cc1ccc(-c2csc(N/N=C3\\C[C@H]4CC[C@@H](C3)N4C)n2)cc1"
  Assigned Class: "FALSE"
- Compound Structure: "CN1[C@@H]2CC[C@H]1C/C(=N/Nc1nc(-c3ccc(N=[N+]=[N-])cc3)cs1)C2"
  Assigned Class: "TRUE"
- Compound Structure: "CN1[C@@H]2CC[C@H]1C/C(=N/Nc1nc(-c3ccc(C(F)(F)F)cc3)cs1)C2"
  Assigned Class: "TRUE"

# input for lookup
# strict comparison: is reported logKw < -3? input = CN1[C@@H]2CC[C@H]1C/C(=N/Nc1nc(-c3ccc(Cl)cc3Cl)cs1)C2
TRUE

Data origin, for the record: ChEMBL document CHEMBL4350971
